B1: RIPK4 (parent)
chain: VIDLFDEQGLSALHLAAQGRHAQT

variants of: B1; test: protein stability index of a GFP-peptide fusion (GPS, HEK-293T) (PSI 1-6); higher = more stable; details: c terminus: a fixed tail appended;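 note: lentivirally expressed fusions sorted by FACS into six bins by GFP to DsRed ratio, PSI derived from sequencing read proportions per bin multiplied by bin number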
// protein stability index lookup, one value per entry
Please give only the number in your answer, with no unit.

- sequence variant: "S11C"
  protein stability index: 2.63

Read the next record carefully.
Look up and report measured protein stability index for this entry: A16K
2.98
